Target: Tubulin (Sus scrofa, UniProt P02554+P02550)
Assay: In vitro inhibition of maximum porcine tubulin assembly rate after 20 min at 37 degrees C
Assay type: functional
testReadout: IC50

Some entries whose results are on file:
>>> print(df.to_string())
                          structurenotation                                    target  valuemeasured
0   COc1ccc(CC2c3ccccc3C(=O)c3ccccc32)cc1OC  Tubulin (Sus scrofa, UniProt P02554+P02550)        > 10 µM
1  COc1cc(CC2c3ccccc3C(=O)c3ccccc32)cc(OC)c1OC  Tubulin (Sus scrofa, UniProt P02554+P02550)        > 10 µM

Ask | Which value of IC50 has been reported for O=C1c2ccccc2C(=Cc2cc(O)c(O)c(O)c2)c2ccccc21 in the records?
Reply | > 10 µM
